# system: Shiga toxin 2 (Escherichia coli O157:H7) (UniProt P09385+P09386)
# protocol: E. coli 0.157:H7 Shiga Toxin SOP - stx2 screening assay
# Format: functional
# Set-up: scale not given: direction of the effect not stated beside the values
# conditions-used: 30 µM
endpoint: Percent Effect (%)
Give the number; % is assumed, so skip it.

CCOc1ccccc1OC1CCN(C(=O)c2nc(=O)[nH][nH]2)CC1 : -11.2
Cc1cc(CN2CCC(CNC(=O)c3nccc4ccccc34)C2)[nH]n1 (stereo unspecified) : -22.4
Cc1noc(C)c1-c1cnc(CC2CCN(C(=O)c3cc[nH]n3)C2)cn1 (stereo unspecified) : 7.65

[ask] Form field: Percent Effect recorded for COc1cccc(CN2CCCC3(CCN(C(=O)[C@H]4CCCO4)C3)C2)c1 (stereo partly specified) with Shiga toxin 2 (Escherichia coli O157:H7) (UniProt P09385+P09386) (enter value)
[reply] 5.38

[ask] Form field: Percent Effect recorded for O=C(c1cscn1)N1CCC[C@]2(C[C@H](OCC3CC3)CO2)C1 with Shiga toxin 2 (Escherichia coli O157:H7) (UniProt P09385+P09386) (enter value)
[reply] -17.4

[ask] Form field: Percent Effect recorded for COc1ccc(CN2CCC3(CC2)CCN(CC2CC2)C3=O)cc1 with Shiga toxin 2 (Escherichia coli O157:H7) (UniProt P09385+P09386) (enter value)
[reply] -2.04

[ask] Form field: Percent Effect recorded for CN(C)C1CCN(C(=O)NCc2ccccc2Cn2cncn2)CC1 with Shiga toxin 2 (Escherichia coli O157:H7) (UniProt P09385+P09386) (enter value)
[reply] 0.165

Reference source for all entries: ChEMBL document CHEMBL3988442
